Record form. Attribute: ADCC EC50. Fill in for each entry.
target: human Claudin 18.2 (hCLDN18.2) (human, UniProt P56856-2 1-261); assay: cell-based or functional assay
Numbers only, in µg/mL.

binder	recorded metric	unit string	observed measurement
ch-59F9 (antibody, V domains shown, also called chimeric antibody of clone 59F9) VH: QVQLQQSGAELMKPGASVKLPCKASGYTLTGYWIEWLKQRPRHGLEWIGEILLGSGSIKYNVKFKDKATFTADTSSNTAYMQLNSLTTEDSAIYYCARKGLRGNSFDYWGQGTTLTVSS VL: DIVMTQSPSSLTVTAGEKVTMSCKSSQSLLNSGNQKSYLTWYQQKPGQPPKRLIYWASTRESGVPDRFTGSGSGTDFTLTISSVQAEDLAVYYCQNDYYYPFTFGSGTKLEIK	ADCC EC50	µg/mL	0.023
ch-253C4 (antibody, V domains shown, also called chimeric antibody of clone 253C4) VH: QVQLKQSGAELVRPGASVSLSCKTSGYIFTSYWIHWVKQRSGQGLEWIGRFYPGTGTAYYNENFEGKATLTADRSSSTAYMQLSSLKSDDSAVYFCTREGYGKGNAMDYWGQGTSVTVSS VL: DIVMTQSPSSLTVTTGEKVTLSCKSSQSLLNSGNQKNYLTWYQQKSGQPPELLIYWASTRESGVPDRFTGSGSGTDFTLTVSSVQAEDLAVYYCQNDYYFPFTFGGGTKLEIK	ADCC EC50	µg/mL	0.036

Now consider a different binder.
Input line: Recorded ADCC EC50 for ch-126A11 (antibody, V domains shown, also called chimeric antibody of clone 126A11) VH: QVQLKESGPGLVAPSQSLSITCTVSEFSLTTYGVSWVRQPPGKGLEWLGVIWGDGSTNYHSALISRLSISKDTSKSQVFLKLNSLQTDDTATYYCAKPGLRNAMDYWGQGTSVTVSS VL: DIVMTQSPSSLSVSAGEKVTMSCKSSQSLLNSGNQKNYLAWYQQKPGQPPKLLIYGASTRESGVPDRFTGSGSGTDFTLTISSVQAEDLAVYYCQNDLIYPLTFGAGTKLELK , please?
Output line: 0.01
